Recorded inhibition of growth at 20 ppm values for a group of molecules are listed next.
Test system: Pythium ultimum
Assay: Pythium ultimum / liquid culture (seedling damping off)
Assay type: cell-based
Conditions: Globisporangium ultimum, growth inhibition determined photometrically, compared to untreated control

For orientation, consider the following solved cases.
- molecule: "COC(=O)Nc1ccc(-c2cnc3ccc(C(=O)N(C)c4ccc(Cl)cn4)cn23)cn1 [Compound 68]"
  observedProperty: "inhibition of growth at 20 ppm"
  reading: "≥ 80%"
- molecule: "COC(=O)Nc1ccc(-c2cnc3ccc(C(=O)N(C)c4cccc(F)c4OC)cn23)cn1 [Compound 12]"
  observedProperty: "inhibition of growth at 20 ppm"
  reading: "≥ 80%"

Qu. Param item = COC(=O)Nc1ccc(-c2cnc3ccc(C(=O)N(C)c4cc(F)ccc4F)cn23)cn1 [Compound 54] ; retrieve measured inhibition of growth at 20 ppm.
Ans. ≥ 80%

Qu. Param item = COC(=O)Nc1ccc(-c2cnc3ccc(C(=O)N(C)c4ccc(Cl)cc4F)cn23)cn1 [Compound 53] ; retrieve measured inhibition of growth at 20 ppm.
Ans. ≥ 80%

Qu. Param item = COC(=O)Nc1ccc(-c2cnc3ccc(C(=O)N4c5ccccc5CCC4C)cn23)cn1 (stereo not shown) [Compound 14] ; retrieve measured inhibition of growth at 20 ppm.
Ans. ≥ 80%

Qu. Param item = COC(=O)Nc1ccc(-c2cnc3ccc(C(=O)N4CC(O)Cc5cc(F)ccc54)cn23)cn1 (stereo not shown) [Compound 24] ; retrieve measured inhibition of growth at 20 ppm.
Ans. ≥ 80%

Qu. Param item = COC(=O)Nc1ccc(-c2cnc3ccc(C(=O)N4CCCc5cc(OC)c(F)cc54)cn23)cn1 [Compound 63] ; retrieve measured inhibition of growth at 20 ppm.
Ans. ≥ 80%

Qu. Param item = COC(=O)Nc1ccc(-c2cnc3ccc(C(=O)N4CCN(C5CC5)c5cc(F)ccc54)cn23)cn1 [Compound 51] ; retrieve measured inhibition of growth at 20 ppm.
Ans. ≥ 80%
